System: LNCaP cells
Assay: Cell growth inhibition (MTT colorimetric assay), LNCaP
Type: cell-based, human
Settings: Homo sapiens, LNCaP, 168 h, Non-steroidal VNPP compounds table, treated for 7 days, read-out: GI50 Values High Passage LNCaP
MEASURED_ENDPOINT: GI50 (µM)

Worked cases, answers included:
1) COc1cccc(-c2ccc(Cn3cnc4ccccc43)cc2)c1 [VNPP347B] | 4.41
2) N#Cc1cccc(-c2ccc(Cn3cnc4ccccc43)cc2)c1 | 3.5

1: Oc1ccc2cc(-c3cccc(-n4cnc5ccccc54)c3)ccc2c1
2: COc1ccc(S(=O)(=O)Nc2cccc(-n3cnc4ccccc43)c2)cc1
Quick one: lower GI50, 1 or 2 ? Record your answer as the label of the chosen record. 2

Where do the numbers come from? From patent US9694005B2.
